Reference source: ChEMBL document CHEMBL5055631

# System: KM12
# Assay Overview: Anticancer activity against human KM12 cells assessed as cell growth inhibition incubated for 48 hrs by SRB method
# Assay type: functional
Below is a list of entries, each paired with its recorded GI50 value.
Phrase the answer as number then unit, nothing more needed.

Smiles	Target	Result
C=C1C(=O)O[C@H]2[C@H]1CC/C(COC(=O)NCc1cc(OC)cc(OC)c1)=C\CC[C@@]1(C)O[C@@H]21	KM12	2.8 µM
C=C1C(=O)O[C@H]2[C@H]1CC/C(COC(=O)NCc1ccccc1OC)=C\CC[C@@]1(C)O[C@@H]21	KM12	3.53 µM
C=C1C(=O)O[C@H]2[C@H]1CC/C(COC(=O)NCCc1cccc(OC)c1)=C\CC[C@@]1(C)O[C@@H]21	KM12	4.27 µM
C=C1C(=O)O[C@H]2[C@H]1CC/C(COC(=O)NCCc1ccc(Br)cc1)=C\CC[C@@]1(C)O[C@@H]21	KM12	1.95 µM
C=C1C(=O)O[C@H]2[C@H]1CC/C(COC(=O)NCc1ccc(OC)cc1)=C\CC[C@@]1(C)O[C@@H]21	KM12	2.35 µM

# context switch: different compound, same GI50
Give the reported GI50 for this compound. "C=C1C(=O)O[C@H]2[C@H]1CC/C(COC(=O)NCCc1ccc(OC)cc1)=C\CC[C@@]1(C)O[C@@H]21" 8.36 µM

----------
Entries annotated with measured GI50
# Test system: HCC 2998
# Assay Overview: Anticancer activity against human HCC 2998 cells assessed as cell growth inhibition incubated for 48 hrs by SRB method
# Type: functional
Could you give me the number in nM? Just the number is fine.

Example entries and their recorded answers appear below.
Smiles	Result
C=C1C(=O)O[C@H]2[C@H]1CC/C(COC(=O)NCc1ccccc1OC)=C\CC[C@@]1(C)O[C@@H]21	1820
C=C1C(=O)O[C@H]2[C@H]1CC/C(COC(=O)NCCc1ccc(OC)cc1)=C\CC[C@@]1(C)O[C@@H]21	2480
C=C1C(=O)O[C@H]2[C@H]1CC/C(COC(=O)NCc1cc(OC)cc(OC)c1)=C\CC[C@@]1(C)O[C@@H]21	1940
C=C1C(=O)O[C@H]2[C@H]1CC/C(COC(=O)NCCc1ccc(Br)cc1)=C\CC[C@@]1(C)O[C@@H]21	1710
C=C1C(=O)O[C@H]2[C@H]1CC/C(COC(=O)NCc1ccc(OC)cc1)=C\CC[C@@]1(C)O[C@@H]21	510

Now for the molecule whose GI50 we want.
Look up and report measured GI50 (HCC 2998) for the following molecule: "C=C1C(=O)O[C@H]2[C@H]1CC/C(COC(=O)NCCc1cccc(OC)c1)=C\CC[C@@]1(C)O[C@@H]21" 1680

----------
Recorded GI50, one value per entry.
# Test system: SF-539
# Assay Overview: Anticancer activity against human SF-539 cells assessed as cell growth inhibition incubated for 48 hrs by SRB method
# Format: functional
Your answer is read as nM, so omit the unit and give the number.

Smiles	Unit Annotation	Result
C=C1C(=O)O[C@H]2[C@H]1CC/C(COC(=O)NCCc1ccc(OC)cc1)=C\CC[C@@]1(C)O[C@@H]21	nM	1790
C=C1C(=O)O[C@H]2[C@H]1CC/C(COC(=O)NCc1ccccc1OC)=C\CC[C@@]1(C)O[C@@H]21	nM	1530
C=C1C(=O)O[C@H]2[C@H]1CC/C(COC(=O)NCCc1ccc(Br)cc1)=C\CC[C@@]1(C)O[C@@H]21	nM	1460
C=C1C(=O)O[C@H]2[C@H]1CC/C(COC(=O)NCCc1cccc(OC)c1)=C\CC[C@@]1(C)O[C@@H]21	nM	1490
C=C1C(=O)O[C@H]2[C@H]1CC/C(COC(=O)NCc1ccc(OC)cc1)=C\CC[C@@]1(C)O[C@@H]21	nM	320

Next compound, GI50 to be filled in.
// Input: "C=C1C(=O)O[C@H]2[C@H]1CC/C(COC(=O)NCc1cc(OC)cc(OC)c1)=C\CC[C@@]1(C)O[C@@H]21" . Output its GI50 only. 1540

----------
# Tested on: MDA-MB-468
# Assay Overview: Anticancer activity against human MDA-MB-468 cells assessed as cell growth inhibition incubated for 48 hrs by SRB method
# Format: functional
Measured GI50 of individual entries

Worked set:
Smiles	Target	Result
C=C1C(=O)O[C@H]2[C@H]1CC/C(COC(=O)NCCc1ccc(Br)cc1)=C\CC[C@@]1(C)O[C@@H]21	MDA-MB-468	840 nM
C=C1C(=O)O[C@H]2[C@H]1CC/C(COC(=O)NCCc1cccc(OC)c1)=C\CC[C@@]1(C)O[C@@H]21	MDA-MB-468	850 nM
C=C1C(=O)O[C@H]2[C@H]1CC/C(COC(=O)NCCc1ccc(OC)cc1)=C\CC[C@@]1(C)O[C@@H]21	MDA-MB-468	1550 nM

Read off the recorded GI50 for "C=C1C(=O)O[C@H]2[C@H]1CC/C(COC(=O)NCc1cc(OC)cc(OC)c1)=C\CC[C@@]1(C)O[C@@H]21" 580 nM

Read off the recorded GI50 for "C=C1C(=O)O[C@H]2[C@H]1CC/C(COC(=O)NCc1ccc(OC)cc1)=C\CC[C@@]1(C)O[C@@H]21" 240 nM

Input "C=C1C(=O)O[C@H]2[C@H]1CC/C(COC(=O)NCc1ccccc1OC)=C\CC[C@@]1(C)O[C@@H]21" , output reported GI50. 660 nM

----------
# Test system: HOP-92
# Assay Overview: Anticancer activity against human HOP-92 cells assessed as cell growth inhibition incubated for 48 hrs by SRB method
# Type: functional
Binarize GI50 at 1000 nM; below is Criterion met, at or above is Criterion not met.

Smiles	Class
C=C1C(=O)O[C@H]2[C@H]1CC/C(COC(=O)NCc1ccc(OC)cc1)=C\CC[C@@]1(C)O[C@@H]21	Criterion met
C=C1C(=O)O[C@H]2[C@H]1CC/C(COC(=O)NCCc1ccc(OC)cc1)=C\CC[C@@]1(C)O[C@@H]21	Criterion not met
C=C1C(=O)O[C@H]2[C@H]1CC/C(COC(=O)NCc1cc(OC)cc(OC)c1)=C\CC[C@@]1(C)O[C@@H]21	Criterion not met
C=C1C(=O)O[C@H]2[C@H]1CC/C(COC(=O)NCc1ccccc1OC)=C\CC[C@@]1(C)O[C@@H]21	Criterion not met
C=C1C(=O)O[C@H]2[C@H]1CC/C(COC(=O)NCCc1cccc(OC)c1)=C\CC[C@@]1(C)O[C@@H]21	Criterion not met

Could you now consider this next molecule?
Lab note: GI50 threshold 1000 nM. Does this molecule come in strictly under it? "C=C1C(=O)O[C@H]2[C@H]1CC/C(COC(=O)NCCc1ccc(Br)cc1)=C\CC[C@@]1(C)O[C@@H]21" Criterion not met

----------
In this section, each of the molecules is paired with its reported GI50.
# Test system: MCF7
# Assay Overview: Anticancer activity against human MCF7 cells assessed as cell growth inhibition incubated for 48 hrs by SRB method
# Type: functional
Record the value in µM, omitting the unit from your answer.

Provide GI50, recorded with MCF7, of "C=C1C(=O)O[C@H]2[C@H]1CC/C(COC(=O)NCc1ccccc1OC)=C\CC[C@@]1(C)O[C@@H]21" 3.13

Would you please give the reported GI50 of "C=C1C(=O)O[C@H]2[C@H]1CC/C(COC(=O)NCc1ccc(OC)cc1)=C\CC[C@@]1(C)O[C@@H]21" with MCF7? 1.87

Fill in: GI50 on MCF7, entry "C=C1C(=O)O[C@H]2[C@H]1CC/C(COC(=O)NCc1cc(OC)cc(OC)c1)=C\CC[C@@]1(C)O[C@@H]21" 2.72

Recall the reported GI50 of "C=C1C(=O)O[C@H]2[C@H]1CC/C(COC(=O)NCCc1cccc(OC)c1)=C\CC[C@@]1(C)O[C@@H]21" when tested on MCF7. 2.3

Using MCF7 as the test system, report measured GI50 of "C=C1C(=O)O[C@H]2[C@H]1CC/C(COC(=O)NCCc1ccc(OC)cc1)=C\CC[C@@]1(C)O[C@@H]21" . 8.08

----------
# Test system: 786-0
# Assay Overview: Anticancer activity against human 786-0 cells assessed as cell growth inhibition incubated for 48 hrs by SRB method
# Type: functional
Listed below: GI50 values for each entry.

Would you please look over these solved cases?
Smiles	Quantity	Result
C=C1C(=O)O[C@H]2[C@H]1CC/C(COC(=O)NCc1ccc(OC)cc1)=C\CC[C@@]1(C)O[C@@H]21	GI50	490 nM
C=C1C(=O)O[C@H]2[C@H]1CC/C(COC(=O)NCCc1ccc(Br)cc1)=C\CC[C@@]1(C)O[C@@H]21	GI50	1490 nM

Please look at this compound and report its GI50: "C=C1C(=O)O[C@H]2[C@H]1CC/C(COC(=O)NCc1ccccc1OC)=C\CC[C@@]1(C)O[C@@H]21" 2450 nM

Quote GI50 reported for "C=C1C(=O)O[C@H]2[C@H]1CC/C(COC(=O)NCc1cc(OC)cc(OC)c1)=C\CC[C@@]1(C)O[C@@H]21" please. 1600 nM

Tell me measured GI50 for "C=C1C(=O)O[C@H]2[C@H]1CC/C(COC(=O)NCCc1ccc(OC)cc1)=C\CC[C@@]1(C)O[C@@H]21" please. 2770 nM

Let me know recorded GI50 for "C=C1C(=O)O[C@H]2[C@H]1CC/C(COC(=O)NCCc1cccc(OC)c1)=C\CC[C@@]1(C)O[C@@H]21" , thanks. 2260 nM
